Test system: MDA-MB-231 breast
MEASUREMENT DESCRIPTION: NCI-60 one-dose screen, 48 h (100 = growth as untreated, 0 = no growth, -100 = all killed)
ASSAY CONTEXT: 10 µM unless noted
Experimental: Cells are grown in 96 well plates and exposed to the test compound for 48 hours. Compounds are tested at a single concentration, which is 10^-5 M for most compounds. The reported endpoint is percent growth (GI% or GIPRCNT), where numbers from 0 - 100% represent growth inhibition, and numbers from -100% - 0 represent cell death. For example, a value of 40 represents 60% growth inhibition. A value of 0 means no net growth occurred over the course of the experiment. […]
About 83,000 compounds went through this panel and 20% of them were active in at least one assay; those are over-represented in the sample as a whole.
This section presents molecules with their documented growth values.
Response body: numeric value in %, unit text excluded.

Here are 3 molecules together with their reported answers.
[[record]]
molecule = "Cc1ccc(C2CC(c3cccc(Nc4ccncc4)c3)=NN2c2ccc(Cl)cc2)cc1 (centres undefined)"
assay_system = "MDA-MB-231 breast"
recorded_value = -86

[[record]]
molecule = "CC(=O)c1c[nH]c2ccc(-c3ccnc(Nc4ccc(NC(=O)c5cccc(F)c5)c(CN5CCOCC5)c4)n3)cc12"
assay_system = "MDA-MB-231 breast"
recorded_value = -37.5

[[record]]
molecule = "CN1CCN(C(=O)[C@]2(C)CC[C@]3(C)CC[C@]4(C)C(=CC(=O)[C@@H]5[C@@]6(C)CCC(=O)NC(C)(C)[C@@H]6CC[C@]54C)[C@@H]3C2)CC1"
assay_system = "MDA-MB-231 breast"
recorded_value = 107


Q: // query growth value for entry "COc1cc(-c2cc(=O)oc3cc(O)ccc23)cc(OC)c1OC"
A: 89.3

* * *

Test system: UACC-62 melanoma
MEASUREMENT DESCRIPTION: NCI-60 one-dose screen, 48 h (100 = growth as untreated, 0 = no growth, -100 = all killed)
ASSAY CONTEXT: 10 µM unless noted
This is part of a sample that, as a whole, favours compounds with a hit. Of some 83,000 tested, about 20% had one in any assay.
This section presents compounds with their documented growth values.
Response body: numeric value in %, unit text excluded.

Q: Entry "Cc1ccccc1-c1cc(Cc2ccc(F)cc2)c(=O)[nH]n1" , system UACC-62 melanoma: what growth was measured?
A: 99.6

Q: Entry "O=C(/C=C/c1ccc[nH]1)c1ccc(-n2ccc(C(F)(F)F)n2)cc1" , system UACC-62 melanoma: what growth was measured?
A: 90.3

Q: Entry "CN1CCN(Cc2ccc(NC(=O)c3cncc(C#Cc4cnccc4C(F)(F)F)c3)cc2C(F)(F)F)CC1" , system UACC-62 melanoma: what growth was measured?
A: 89.9

Q: Entry "CC(C)(C)OC(=O)N1C/C(=C\c2ccoc2)C(=O)/C(=C/c2ccoc2)C1" , system UACC-62 melanoma: what growth was measured?
A: 88.3

Q: Entry CCCCCCCCCCCC(=O)C(CCCCCCCCCC)C(=O)Nc1ccccc1 (stereo not given) , system UACC-62 melanoma: what growth was measured?
A: 91.5

Q: Entry "C#CCn1cc(C=C2C(=O)NC(=S)NC2=O)c2cc(Cl)ccc21" , system UACC-62 melanoma: what growth was measured?
A: 1.1

Q: Entry "Cc1ccc2[nH]c(=O)cc(-n3nncc3COc3ccc(C=O)cc3)c2c1" , system UACC-62 melanoma: what growth was measured?
A: 93.7

Q: Entry "O=C1Nc2c(ccc(Cl)c2Cl)/C1=C/c1ccccn1" , system UACC-62 melanoma: what growth was measured?
A: 70.5

Q: Entry "COc1cc2nc(-c3ccc(C(F)(F)F)cc3)cc(OCCCN3CCC(O)CC3)c2cc1OC" , system UACC-62 melanoma: what growth was measured?
A: -31.3

Q: Entry "NC(=S)N/N=C/c1ccc(OC(=O)COc2cc(Cl)c(Cl)cc2Cl)cn1" , system UACC-62 melanoma: what growth was measured?
A: 39.7
